Assay: viability loss in pontine glioma line – cell-based, JHH-DIPG-1, MIPE4.0, CellTiter-Glo, qHTS, dose response (AID 1347062);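 for AC50: cells exposed to compound for two days before readout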
Conditions: JHH-DIPG-1 viability, CellTiter-Glo ATP luminescence
Records with an inconclusive call do not appear. The source made the active and inactive calls. No cut-off is given here; in the data, nearly all actives have AC50 up to about 27 µM.
Labels: t = active, f = inactive

Compound	Group
O=c1[nH]c(=O)n([C@H]2C[C@H](O)[C@@H](CO)O2)cc1F	t
CCOC(=O)[C@H](CCc1ccccc1)N[C@@H](C)C(=O)N1[C@H](C(=O)O)C[C@@H]2CCC[C@@H]21	t
CCC1=C(C)CN(C(=O)NCCc2ccc(S(=O)(=O)NC(=O)NC3CCC(C)CC3)cc2)C1=O (stereo not given)	f
CC[N+](CC)(CC)CCOc1cccc(OCC[N+](CC)(CC)CC)c1OCC[N+](CC)(CC)CC	f
NS(=O)(=O)c1cc2c(cc1Cl)NC(C(Cl)Cl)NS2(=O)=O (stereo not given)	f
CS(=O)(=O)c1ccc([C@@H](O)[C@@H](CO)NC(=O)C(Cl)Cl)cc1	f
CN(C)c1ccc2nc3ccc(=[N+](C)C)cc-3sc2c1	t
COc1cc([C@H]2Oc3cc([C@H]4Oc5cc(O)cc(O)c5C(=O)[C@@H]4O)ccc3O[C@@H]2CO)ccc1O	f
COCCCC/C(=N\OCCN)c1ccc(C(F)(F)F)cc1	f
Oc1ccc(OCc2ccccc2)cc1	f

---

Assay: reduced SW480 viability measured with CellTiter-Glo, NPC library, primary (AID 1117343)
Conditions: CellTiter-Glo luminescence; at 20 µM (top of the series)
viability decrease (inhibition) overview

Molecule	viability decrease (inhibition), %
Nc1[nH]c(=O)ncc1F	-13.1
CN1CCC(=C2c3ccccc3CCc3sccc32)CC1	103
CCn1cc(C(=O)O)c(=O)c2cc3c(cc21)OCO3	8.3
COc1cc(C(=O)NCc2ccc(OCCN(C)C)cc2)cc(OC)c1OC	-11.4
CCN(CCCCOC(=O)c1ccc(OC)c(OC)c1)C(C)Cc1ccc(OC)cc1 (configuration not stated)	20
CCN(CC)C(C)CN1c2ccccc2Sc2ccccc21 (configuration not stated)	109
CCC(Cc1c(I)cc(I)c(N)c1I)C(=O)O (configuration not stated)	18.6
CCCCOc1cc(C(=O)NCCN(CC)CC)c2ccccc2n1	49.2
CCCCCCCCNC(C)C(O)c1ccc(SC(C)C)cc1 (configuration not stated)	142
O=c1c(-c2ccc(O)cc2)coc2cc(O)cc(O)c12	94.1
CCN(CC)CCNc1ccc(CO)c2sc3ccccc3c(=O)c12	74.7
Cc1ccsc1C(=CCCN1CCC[C@@H](C(=O)O)C1)c1sccc1C	-16.3

---

System: R275C/beta1
Experiment: BK channel mutant inhibitors and activators – cell-based, U2OS BacMam, thallium flux, beta subunits, selectivity assay, profiling panel (AID 1259406);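 note: initial slope of Thallos dye fluorescence rise after thallium is added; log ratio against the mean of 0.3% DMSO vehicle wells on the same plate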
Details: U2OS BacMam BK variants, at 30 µM
The source made the active and inactive calls.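 How the source made its calls: active means thallium flux through the channel raised or lowered by more than 3 SD from vehicle-only wells, actives on both sides; inactive means the rest.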
Possible outcomes: active, inactive

Compound	Group
O=C(CCNNC(=O)c1ccncc1)NCc1ccccc1	inactive
CN1CCN(C2=Nc3cc(F)ccc3Cc3ccccc32)CC1	inactive
CC[N+](C)(CC)CCOC(=O)C(O)(c1ccccc1)C1CCCCC1 (stereo unspecified)	inactive
Cc1nc2n(c(=O)c1CCN1CCC(c3noc4cc(F)ccc34)CC1)CCCC2	inactive
COc1cc(C)c(Cc2cnc(N)nc2N)cc1OC	inactive
COC(=O)C1=C(C)NC(C)=C(C(=O)OCC(C)C)C1c1ccccc1[N+](=O)[O-] (stereo unspecified)	active

---

Test: drug combination growth inhibition, ovarian cancer – cell-based, oncology-focused library, rucaparib conditional, profiling panel (AID 1508598)
Settings: patient-derived ovarian cancer cells, CellTiter-Glo viability, 144 h; at 0.000305 µM; OCI-P5x cells; with rucaparib 20 µM; stronger effect = lower value; 100% = cells with rucaparib alone

Compound	viability / %
O=c1c(O)c(-c2ccc(O)c(O)c2)oc2cc(O)cc(O)c12	92
Cn1nnc2c(C(N)=O)ncn2c1=O	91
CC(c1cc2ccccc2s1)N(O)C(N)=O (stereo not given)	77.5
COc1cc2c(Nc3ccc(Br)cc3F)ncnc2cc1OCC1CCN(C)CC1	82.1
CCC(C)n1ncn(-c2ccc(N3CCN(c4ccc(OC[C@H]5CO[C@](Cn6cncn6)(c6ccc(Cl)cc6Cl)O5)cc4)CC3)cc2)c1=O (stereo not given in full)	90.3
Cc1nc2ccc(CN(C)c3ccc(C(=O)N[C@@H](CCC(=O)O)C(=O)O)s3)cc2c(=O)[nH]1	107
O=NN(CCCl)C(=O)NC1CCCCC1	87.5
CN(Cc1cnc2nc(N)nc(N)c2n1)c1ccc(C(=O)N[C@@H](CCC(=O)O)C(=O)O)cc1	113
CCc1c2c(nc3ccc(OC(=O)N4CCC(N5CCCCC5)CC4)cc13)-c1cc3c(c(=O)n1C2)COC(=O)[C@]3(O)CC	102
CC[C@@]1(O)C(=O)OCc2c1cc1n(c2=O)Cc2cc3c(CN(C)C)c(O)ccc3nc2-1	94.2

---

Test: polyglutamine aggregate formation blockers (AID 1604)
Conditions: polyglutamine-induced protein aggregation inhibition assay; stronger effect = higher value; concentration not given here
Reported inhibition of aggregation by item:

Compound	inhibition of aggregation (%)
Nc1ccc(C(=O)NCC(=O)O)cc1	83.6
CCN(CC)CCOCCOC(=O)C1(c2ccccc2)CCCC1	94.4
CCN(CC)CCOC(=O)C(c1ccccc1)c1ccccc1	66.7
CCN(CC)CCOc1ccc(/C(=C(\Cl)c2ccccc2)c2ccccc2)cc1	46.5
COc1ccc(C(=O)c2ccccc2)c(O)c1	35
CC(=O)NCCCCCC(=O)O	74.4
CC(=O)NS(=O)(=O)c1ccc(N)cc1	48.5
CCCN(CCC)C(=O)C(CCC(=O)O)NC(=O)c1ccccc1 (stereo not given)	68.3
CNC[C@H](O)c1cccc(O)c1	47.4
O=C(N[C@H](CO)[C@H](O)c1ccc([N+](=O)[O-])cc1)C(Cl)Cl	55
Oc1ccc(Cl)c2cccnc12	63.5
Cc1nc2sccn2c(=O)c1CCN1CCC(=C(c2ccc(F)cc2)c2ccc(F)cc2)CC1	7.32
C=CCSCC1Nc2cc(Cl)c(S(N)(=O)=O)cc2S(=O)(=O)N1 (stereo not given)	-7.48
CC(C)(C)CC(C)(C)c1ccc(O)c(Cc2ccc(Cl)cc2Cl)c1	71.9
CC(C(=O)O)c1ccc(C(=O)c2cccs2)cc1 (stereo not given)	91.6
NC(N)=NCCN1CCCCCCC1	35.2
c1ccc(CN(CC2=NCCN2)c2ccccc2)cc1	71.4
Clc1ccc(C(c2ccccc2Cl)C(Cl)Cl)cc1 (stereo not given)	72.2
C#CCN(C)Cc1ccccc1	0
O=C(O)c1ccccc1O	56.1
NC(=O)c1ccc([N+](=O)[O-])cc1Cl	82.5
Nc1nccs1	30.7
Nc1ccc(S(=O)(=O)Nc2ccnn2-c2ccccc2)cc1	4.55
OCC(O)CN1CCN(c2ccccc2)CC1 (stereo not given)	68.2
Cc1cccc(N(C)C(=S)Oc2ccc3ccccc3c2)c1	57.4

---

Experiment: stimulators of insulin release from INS-1E, primary screen, cell-based, 5 mM glucose, NPC library (AID 1117329)
Details: rat INS-1E insulin secretion, at 10 µM, stronger effect = higher value

Compound	insulin secretion stimulation / %
CC[N+](CC)(CC)CCOc1cccc(OCC[N+](CC)(CC)CC)c1OCC[N+](CC)(CC)CC	-1.3
CN1CCN(CC(=O)N2c3ccccc3C(=O)Nc3cccnc32)CC1	-1.3
CC1CCC(NC(=O)N(CCCl)N=O)CC1 (stereo unspecified)	2
C/C=C1\[C@H]2C=C(C)C[C@]1(N)c1ccc(=O)[nH]c1C2	1.5
CN(C)[C@@H]1C(=O)C(C(N)=O)=C(O)[C@@]2(O)C(=O)C3=C(O)c4c(O)ccc(Cl)c4[C@@H](O)[C@H]3C[C@@H]12	0.9
CCOC(=O)OC(C)OC(=O)[C@@H]1N2C(=O)[C@@H](NC(=O)[C@H](N)c3ccccc3)[C@H]2SC1(C)C (stereo partly specified)	0.3
CCCCc1ccc2nc(NC(=O)OC)[nH]c2c1	-1.7
CS(=O)(=O)Nc1ccc([N+](=O)[O-])cc1Oc1ccccc1	0.6
CC(c1cc2ccccc2s1)N(O)C(N)=O (stereo unspecified)	-0.1
Cc1cc(C2CCCCC2)n(O)c(=O)c1	0.4
CCCCC(CC)CN1CN(CC(CC)CCCC)CC(C)(N)C1 (stereo unspecified)	6.1

---

Test system: Aerobactin synthetase IucA (Klebsiella pneumoniae)
Assay: inhibition of K. pneumoniae IucA enzyme – biochemical, Tocris library, absorbance (AID 1345561);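 note: 100% = enzyme without compound and 0% = no enzyme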
Settings: purified IucA enzyme assay, absorbance (OD) read-out; stronger effect = lower value; concentration not given here
Endpoint name: remaining activity (%)

Molecule	Study system	Val
O=C1CC2(CCCC2)CC(=O)N1CCCCN1CCN(c2ncccn2)CC1	Aerobactin synthetase IucA (Klebsiella pneumoniae)	109
CC1=NN(c2ccccc2)C(=O)C1	Aerobactin synthetase IucA (Klebsiella pneumoniae)	85.6
Cc1nc2sccn2c(=O)c1CCN1CCC(=C(c2ccc(F)cc2)c2ccc(F)cc2)CC1	Aerobactin synthetase IucA (Klebsiella pneumoniae)	122
COc1cc2c(cc1OC)-c1cc(=Nc3c(C)cc(C)cc3C)n(C)c(=O)n1CC2	Aerobactin synthetase IucA (Klebsiella pneumoniae)	110
c1cnc(N2CCN(Cc3ccc4c(c3)OCO4)CC2)nc1	Aerobactin synthetase IucA (Klebsiella pneumoniae)	119
C[C@@](Cc1ccc(O)c(O)c1)(NN)C(=O)O	Aerobactin synthetase IucA (Klebsiella pneumoniae)	93.6
O=c1c(-c2ccc(O)cc2)coc2cc(O)cc(O)c12	Aerobactin synthetase IucA (Klebsiella pneumoniae)	121
O=C(O)/C=C/c1ccc(Cn2ccnc2)cc1	Aerobactin synthetase IucA (Klebsiella pneumoniae)	107
NS(=O)(=O)Cc1noc2ccccc12	Aerobactin synthetase IucA (Klebsiella pneumoniae)	96.2
CCN1CCCC1CNC(=O)c1cc(S(=O)(=O)CC)c(N)cc1OC (stereo not drawn)	Aerobactin synthetase IucA (Klebsiella pneumoniae)	104
CC(C)NC[C@@H](O)COc1cccc2ccccc12	Aerobactin synthetase IucA (Klebsiella pneumoniae)	109
CCN1CCC[C@H]1CNC(=O)c1cc(S(N)(=O)=O)ccc1OC	Aerobactin synthetase IucA (Klebsiella pneumoniae)	123
COC(=O)C1=C(C)NC(C)=C(C(=O)OC(C)C)C1c1cccc2nonc12 (stereo not drawn)	Aerobactin synthetase IucA (Klebsiella pneumoniae)	109
CCOC(=O)c1ncn2c1CN(C)C(=O)c1cc(F)ccc1-2	Aerobactin synthetase IucA (Klebsiella pneumoniae)	110
COC(=O)Nc1nc2ccc(C(=O)c3cccs3)cc2[nH]1	Aerobactin synthetase IucA (Klebsiella pneumoniae)	122
CC(C)NCC(O)COc1ccc(CCOCC2CC2)cc1 (stereo not drawn)	Aerobactin synthetase IucA (Klebsiella pneumoniae)	100
COC(=O)[C@H]1[C@H]2C[C@@H]3c4[nH]c5cc(OC)ccc5c4CCN3C[C@H]2C[C@@H](OC(=O)c2cc(OC)c(OC)c(OC)c2)[C@@H]1OC	Aerobactin synthetase IucA (Klebsiella pneumoniae)	124
COc1ccc2[nH]cc(CCNC(C)=O)c2c1	Aerobactin synthetase IucA (Klebsiella pneumoniae)	102
O=C(c1ccc(F)cc1)C1CCN(CCn2c(=O)[nH]c3ccccc3c2=O)CC1	Aerobactin synthetase IucA (Klebsiella pneumoniae)	124
CCN(CC)CC1CCCCN1CC(=O)N1c2ccccc2C(=O)Nc2cccnc21 (stereo not drawn)	Aerobactin synthetase IucA (Klebsiella pneumoniae)	116
Cc1cc(C(C)(C)C)c(O)c(C)c1CC1=NCCN1	Aerobactin synthetase IucA (Klebsiella pneumoniae)	99.4
COc1cc(C(=O)OCCCN2CCCN(CCCOC(=O)c3cc(OC)c(OC)c(OC)c3)CC2)cc(OC)c1OC	Aerobactin synthetase IucA (Klebsiella pneumoniae)	90.6
Cc1oncc1C(=O)Nc1ccc(C(F)(F)F)cc1	Aerobactin synthetase IucA (Klebsiella pneumoniae)	91.8
